# IC50 per entry
target: α4β1 integrin (Homo sapiens, UniProt P05556+P13612); construct: endogenous in cells; host or cells: Ramos cells; assay: Adhesion of calcein-labeled Ramos cells to CS1 (fibronectin) peptide conjugated ovalbumin; type: cell-based; settings: Table 3; Ramos cell adhesion to CS1 conjugated ovalbumin, 30 minutes at 37° C.
Sequence (P13612 34-1032): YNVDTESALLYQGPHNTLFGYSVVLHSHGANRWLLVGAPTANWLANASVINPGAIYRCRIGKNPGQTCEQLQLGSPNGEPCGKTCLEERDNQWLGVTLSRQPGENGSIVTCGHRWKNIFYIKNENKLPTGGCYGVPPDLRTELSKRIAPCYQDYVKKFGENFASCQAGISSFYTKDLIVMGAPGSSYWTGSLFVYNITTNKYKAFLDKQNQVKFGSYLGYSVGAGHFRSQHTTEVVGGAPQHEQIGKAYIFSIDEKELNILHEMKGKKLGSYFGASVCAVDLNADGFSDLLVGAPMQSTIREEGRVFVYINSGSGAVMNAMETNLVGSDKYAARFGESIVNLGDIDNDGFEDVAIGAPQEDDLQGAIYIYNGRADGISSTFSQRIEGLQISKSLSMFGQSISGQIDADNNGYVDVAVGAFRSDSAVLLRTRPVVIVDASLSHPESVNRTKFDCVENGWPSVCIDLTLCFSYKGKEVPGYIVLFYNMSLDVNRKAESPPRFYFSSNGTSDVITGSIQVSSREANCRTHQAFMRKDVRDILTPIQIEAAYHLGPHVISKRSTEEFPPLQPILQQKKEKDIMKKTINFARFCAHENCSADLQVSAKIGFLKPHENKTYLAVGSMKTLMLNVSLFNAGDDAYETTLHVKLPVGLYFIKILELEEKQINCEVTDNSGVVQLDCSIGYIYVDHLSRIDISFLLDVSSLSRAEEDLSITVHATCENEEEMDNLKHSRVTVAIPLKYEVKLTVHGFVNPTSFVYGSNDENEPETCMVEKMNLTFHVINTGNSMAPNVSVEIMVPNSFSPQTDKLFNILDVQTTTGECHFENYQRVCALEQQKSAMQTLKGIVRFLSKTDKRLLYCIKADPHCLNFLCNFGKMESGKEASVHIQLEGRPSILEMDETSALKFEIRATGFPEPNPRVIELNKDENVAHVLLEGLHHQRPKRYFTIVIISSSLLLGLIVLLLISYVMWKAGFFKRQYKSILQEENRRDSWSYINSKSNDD
Sequence (P05556 21-798): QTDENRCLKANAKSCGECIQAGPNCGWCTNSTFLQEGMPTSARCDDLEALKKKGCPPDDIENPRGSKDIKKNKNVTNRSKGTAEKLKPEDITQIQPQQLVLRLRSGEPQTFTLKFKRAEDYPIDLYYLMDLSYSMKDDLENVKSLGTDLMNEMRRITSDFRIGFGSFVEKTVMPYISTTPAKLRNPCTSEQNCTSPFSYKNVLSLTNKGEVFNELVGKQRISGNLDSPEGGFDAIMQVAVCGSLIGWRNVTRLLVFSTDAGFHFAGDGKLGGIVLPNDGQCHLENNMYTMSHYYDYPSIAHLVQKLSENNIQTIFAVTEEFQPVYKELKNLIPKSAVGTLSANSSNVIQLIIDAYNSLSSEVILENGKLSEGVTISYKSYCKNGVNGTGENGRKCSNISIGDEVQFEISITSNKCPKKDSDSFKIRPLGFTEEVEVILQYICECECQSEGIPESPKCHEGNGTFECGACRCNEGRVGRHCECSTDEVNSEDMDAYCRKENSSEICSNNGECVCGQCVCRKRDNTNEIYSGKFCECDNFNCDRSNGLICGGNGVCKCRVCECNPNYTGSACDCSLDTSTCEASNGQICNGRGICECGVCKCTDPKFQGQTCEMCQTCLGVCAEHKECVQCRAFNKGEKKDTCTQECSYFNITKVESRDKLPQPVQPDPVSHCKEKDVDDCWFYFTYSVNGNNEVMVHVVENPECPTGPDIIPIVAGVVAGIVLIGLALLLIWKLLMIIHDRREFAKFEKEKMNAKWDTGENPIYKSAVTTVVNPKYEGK
Value expressed in nM; do not type the unit.

Previously resolved entries follow.
INSERT INTO results (chemical_smiles, recorded_number) VALUES
  ('CCCc1ccn(Cc2ccccc2Cl)c(=O)c1NC(=O)N[C@@H](CC(=O)O)c1ccc(C)cc1', 4),
  ('Cc1ccc([C@H](CC(=O)O)NC(=O)Nc2c(F)ccn(Cc3ccccc3Cl)c2=O)cc1', 15),
  ('Cc1ccn(Cc2ccccc2Cl)c(=O)c1NC(=O)N[C@H](C)CC(=O)O', 300);

Continue with the next compound.
Q: Return reported IC50; argument: Cc1ccc([C@H](CC(=O)O)NC(=O)Nc2c(O)ccn(Cc3ccccc3Cl)c2=O)cc1
Ans: 10
